- assay details: Genotoxicity against african green monkey VERO cells
- Format: toxicity, cell-based
- particulars: African green monkey (Chlorocebus sabaeus)
pIC50: −log10 of the molar value.
quantity measured: pIC50

Item under review: O=C(O)c1cc(O)c(O)c(O)c1 [GALLIC ACID] . Reported pIC50?
< 3.52

---

- Tested on: CCRF-CEM
- assay details: Cytotoxicity against human CEM cells after 24 hrs by MTT assay
- Type: functional, cell-based
quantity measured: IC50

Item under review: `O=C(O)c1cc(O)c(O)c(O)c1` . Reported IC50?
> 50 µM
